# Test system: M. tuberculosis H37Rv growth inhibition, 7H9 media
# test summary: M. tuberculosis growth inhibition, HTS (AID 449762);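 note: bacterial growth assessed after seven days of incubation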
# condition notes: measured here: IC90 growth inhibition
Results filed as inconclusive are left out.
observation type: IC90

What value of IC90 on M. tuberculosis H37Rv growth inhibition, 7H9 media does Cc1cc(C)nc(-n2nc(C)cc2NC(=O)CN2CCC(C)CC2)n1 have? 16.9 µM

What value of IC90 on M. tuberculosis H37Rv growth inhibition, 7H9 media does Cc1ccc(C(C)C)c(OCC(=O)OCc2c(C)noc2C)c1 have? 3.29 µM

What value of IC90 on M. tuberculosis H37Rv growth inhibition, 7H9 media does COc1ccc(-c2c(C#Cc3ccsc3)c3ccccc3n2C)cc1 have? 37.8 µM

What value of IC90 on M. tuberculosis H37Rv growth inhibition, 7H9 media does CCOC(=O)COc1ccc2c(c1)C(=O)CC(C)(c1cccnc1)O2 (stereo not drawn) have? 18.4 µM

What value of IC90 on M. tuberculosis H37Rv growth inhibition, 7H9 media does C/C(=N\Nc1ccc(S(=O)(=O)N2CCCCC2)cn1)c1cccc(Br)c1 have? > 100 µM

What value of IC90 on M. tuberculosis H37Rv growth inhibition, 7H9 media does CN(CC(=O)Nc1ccccc1Br)C(=O)c1cccnc1Nc1cccc(C(F)(F)F)c1 have? 40.7 µM

What value of IC90 on M. tuberculosis H37Rv growth inhibition, 7H9 media does Clc1cccc(-c2cc3nc4c(c(NCc5ccco5)n3n2)CCCC4)c1 have? 17.4 µM

What value of IC90 on M. tuberculosis H37Rv growth inhibition, 7H9 media does CCn1cc(Br)c(C(=O)Nc2ccc(C(=O)OC(C)C)cc2)n1 have? 57.8 µM

What value of IC90 on M. tuberculosis H37Rv growth inhibition, 7H9 media does CC(/C=N/NC(=O)c1cc(-c2ccc3ccccc3c2)n[nH]1)=C\c1ccco1 have? 51.2 µM

What value of IC90 on M. tuberculosis H37Rv growth inhibition, 7H9 media does COc1ccccc1C(=O)NNC(=O)C(=O)NCc1ccccc1 have? 37.9 µM

What value of IC90 on M. tuberculosis H37Rv growth inhibition, 7H9 media does CC(C)(C)NC(=O)COC(=O)c1cc(Br)ccc1Cl have? 65.1 µM

What value of IC90 on M. tuberculosis H37Rv growth inhibition, 7H9 media does CCOC(=O)/C(=N/Nc1ccc(OC)cc1)N1CCCc2ccccc21 have? > 100 µM

What value of IC90 on M. tuberculosis H37Rv growth inhibition, 7H9 media does O=C(CSC1=NC(=O)C(c2ccccc2)C(=O)N1)Nc1ccccc1Cl (stereo not drawn) have? 6.58 µM

What value of IC90 on M. tuberculosis H37Rv growth inhibition, 7H9 media does CC(C)OC(=O)CCCCCN1C(=O)CSC1=S have? 8.17 µM

What value of IC90 on M. tuberculosis H37Rv growth inhibition, 7H9 media does CCCc1cc(=O)n2[nH]c(C)c(-c3ccc(Cl)cc3)c2n1 have? 18.1 µM

What value of IC90 on M. tuberculosis H37Rv growth inhibition, 7H9 media does CC(C)(C)c1csc(NC(=O)c2c(F)c(F)c(F)c(F)c2F)n1 have? 25.2 µM

What value of IC90 on M. tuberculosis H37Rv growth inhibition, 7H9 media does CCOc1cc(C=O)cc(N=Nc2cccc([N+](=O)[O-])c2)c1O have? 11.6 µM

What value of IC90 on M. tuberculosis H37Rv growth inhibition, 7H9 media does O=C(Nc1ccc(Cl)cc1)N1CCN(c2ccc3nnc(-c4ccc(F)cc4)n3n2)CC1 have? 26.4 µM

What value of IC90 on M. tuberculosis H37Rv growth inhibition, 7H9 media does C(=N\Nc1ncnc2sc3c(c12)CCC3)/c1cccs1 have? 16.8 µM

What value of IC90 on M. tuberculosis H37Rv growth inhibition, 7H9 media does O=C(COc1cccc(Oc2ccccc2)c1)Nc1ncccn1 have? > 100 µM

What value of IC90 on M. tuberculosis H37Rv growth inhibition, 7H9 media does CCc1ccc(-c2nn(-c3ccccc3)cc2CSC(=N)N)cc1 have? 22.4 µM

What value of IC90 on M. tuberculosis H37Rv growth inhibition, 7H9 media does O=C1CC(=C(c2ccccc2)c2ccccc2)C(=O)N1CCCCN1CCN(c2ccccc2)CC1 have? 26 µM

What value of IC90 on M. tuberculosis H37Rv growth inhibition, 7H9 media does Cc1ncc(C23CC4CC(CC(C4)C2)C3)[nH]1 have? 51.5 µM
